System: U2OS
Test: Incucyte cell viability with U2OS; note: unitless GR value; below 1 slowed growth and below 0 cell loss
Assay type: toxicity, cell-based
Settings: human, 24 h, 10 µM, compound concentration 10 uM, replicate number 2
This section presents compounds with their documented Growth Rate values.

Check out these entries, answers already filled in.
>>> result("FC(F)(F)c1ccccc1-c1cc(C(F)(F)F)c2[nH]c(C3=NOC4(CCCCC4)C3)nc2c1")
0.94
>>> result("C=C[C@H]1C[N@@]2CC[C@H]1C[C@@H]2[C@@H](O)c1ccnc2ccc(OC)cc12")
0.83
>>> result("CCNC(=O)c1ccc2c(c1)NC(=O)/C2=C(\\Nc1ccc(CN(C)C)cc1)c1ccccc1")
0.83
>>> result("CCCCC/C=C/C=C1/C(=O)C=C[C@@H]1C/C=C\\CCCC(=O)O")
0.85
>>> result("CC(C)c1ccc(/C=N/NC(=O)c2ccc(O)cc2)cc1")
0.98
>>> result("Cc1ccc(-n2nc(C(C)(C)C)cc2NC(=O)Nc2ccccc2F)cc1")
0.85
>>> result("Fc1ccc(-c2nc(-c3ccc4ccccc4c3F)[nH]c2-c2ccncc2)cc1")
0.94

Next compound, Growth Rate to be filled in.
Challenge: # input compound: COc1ccc2c(O[C@@H]3C[C@H]4C(=O)N[C@]5(C(=O)NS(=O)(=O)C6(C)CC6)CC5/C=C\CCCCC[C@H](NC(=O)c5ccn(C)n5)C(=O)N4C3)cc(OC(C)C)nc2c1C (stereo partly drawn) ; wanted: its Growth Rate
Response given: 0.78
